Test system: Pichia kudriavzevii
Assay: Antifungal activity against Pichia kudriavzevii by CLSI based broth microdilution method
Type: functional
Recorded measurements of MIC, one per entry

// known answers, use as guide
Reported MIC, compound Fc1ccc(C(Cn2cnnn2)[Se]C(Cn2cnnn2)c2ccc(F)cc2F)c(F)c1 (stereo not drawn) : ____ > 64 µg/mL

Reported MIC, compound Fc1ccc(C(Cn2cncn2)[Se]C(Cn2cncn2)c2ccc(F)cc2)cc1 (stereo not drawn) : ____ > 64 µg/mL

// below: MIC requested for another compound
Reported MIC, compound Clc1ccc(C(Cn2cncn2)[Se]C(Cn2cncn2)c2ccc(Cl)cc2)cc1 (stereo not drawn) : ____ > 64 µg/mL

* * *

Test system: Candida albicans
Experiment: Antifungal activity against FCZ-resistant Candida albicans 17# by CLSI based broth microdilution method
Format: functional
The label is TRUE for MIC below 20 µg/mL and FALSE for MIC equal to or exceeding 20 µg/mL.

Answer whether the compound Clc1ccc(C(Cn2ccnc2)[Se]C(Cn2ccnc2)c2ccc(Cl)cc2Cl)c(Cl)c1 (centres undefined) has MIC strictly less than 20 µg/mL TRUE

Answer whether the compound Fc1ccc(C(Cn2ccnc2)[Se][Se]C(Cn2ccnc2)c2ccc(F)cc2F)c(F)c1 (centres undefined) has MIC strictly less than 20 µg/mL TRUE

Answer whether the compound Clc1ccc(C(Cn2cnnn2)[Se]C(Cn2cnnn2)c2ccc(Cl)cc2)cc1 (centres undefined) has MIC strictly less than 20 µg/mL FALSE

Answer whether the compound Clc1ccc(C(Cn2ccnn2)[Se]C(Cn2ccnn2)c2ccc(Cl)cc2)cc1 (centres undefined) has MIC strictly less than 20 µg/mL FALSE

Answer whether the compound Fc1ccc(C(Cn2cncn2)[Se][Se]C(Cn2cncn2)c2ccc(F)cc2)cc1 (centres undefined) has MIC strictly less than 20 µg/mL TRUE

Others:
Answer whether the compound Clc1ccc(C(Cn2ccnc2)[Se][Se]C(Cn2ccnc2)c2ccc(Cl)cc2Cl)c(Cl)c1 (centres undefined) has MIC strictly less than 20 µg/mL TRUE

Answer whether the compound Clc1ccc(C(Cn2ccnn2)[Se][Se]C(Cn2ccnn2)c2ccc(Cl)cc2)cc1 (centres undefined) has MIC strictly less than 20 µg/mL FALSE

Answer whether the compound Fc1ccc(C(Cn2ccnc2)[Se]C(Cn2ccnc2)c2ccc(F)cc2)cc1 (centres undefined) has MIC strictly less than 20 µg/mL TRUE

Answer whether the compound Clc1ccc(C(Cn2cnnn2)[Se]C(Cn2cnnn2)c2ccc(Cl)cc2Cl)c(Cl)c1 (centres undefined) has MIC strictly less than 20 µg/mL FALSE

Answer whether the compound Fc1ccc(C(Cn2cnnn2)[Se]C(Cn2cnnn2)c2ccc(F)cc2F)c(F)c1 (centres undefined) has MIC strictly less than 20 µg/mL FALSE

* * *

Tested on: Candida albicans
Assay: Antifungal activity against FCZ-resistant Candida albicans 632 by CLSI based broth microdilution method
Type: functional
quantity-name: MIC (µg/mL)
Report the figure in µg/mL without appending any unit label.

// known answers, use as guide
Reported MIC, compound c1ccc(C(Cn2ccnc2)[Se]C(Cn2ccnc2)c2ccccc2)cc1 (configuration not stated) : ____ 8

Reported MIC, compound Fc1ccc(C(Cn2ccnc2)[Se]C(Cn2ccnc2)c2ccc(F)cc2F)c(F)c1 (configuration not stated) : ____ 4

Reported MIC, compound Cc1ccc(C(Cn2ccnc2)[Se]C(Cn2ccnc2)c2ccc(C)cc2)cc1 (configuration not stated) : ____ 4

Reported MIC, compound Fc1ccc(C(Cn2ccnc2)[Se][Se]C(Cn2ccnc2)c2ccc(F)cc2F)c(F)c1 (configuration not stated) : ____ 8

Reported MIC, compound Cc1ccc(C(Cn2ccnc2)[Se][Se]C(Cn2ccnc2)c2ccc(C)cc2)cc1 (configuration not stated) : ____ 4

Reported MIC, compound Clc1ccc(C(Cn2ccnc2)[Se][Se]C(Cn2ccnc2)c2ccc(Cl)cc2Cl)c(Cl)c1 (configuration not stated) : ____ 4

Reported MIC, compound Clc1ccc(C(Cn2ccnc2)[Se][Se]C(Cn2ccnc2)c2ccc(Cl)cc2)cc1 (configuration not stated) : ____ 4

Others:
Reported MIC, compound c1ccc(C(Cn2ccnc2)[Se][Se]C(Cn2ccnc2)c2ccccc2)cc1 (configuration not stated) : ____ 8

* * *

Test system: Candida albicans
Assay: Antifungal activity against FCZ-resistant Candida albicans 17# by CLSI based broth microdilution method
Format: functional
The label is yes (1) for MIC below 8 µg/mL and no (0) for MIC equal to or exceeding 8 µg/mL.

Please review the following examples before continuing.
Answer whether the compound Fc1ccc(C(Cn2ccnn2)[Se]C(Cn2ccnn2)c2ccc(F)cc2)cc1 (centres undefined) has MIC strictly less than 8 µg/mL no (0)

Answer whether the compound Fc1ccc(C(Cn2cnnn2)[Se][Se]C(Cn2cnnn2)c2ccc(F)cc2F)c(F)c1 (centres undefined) has MIC strictly less than 8 µg/mL no (0)

Answer whether the compound Fc1ccc(C(Cn2ccnn2)[Se][Se]C(Cn2ccnn2)c2ccc(F)cc2)cc1 (centres undefined) has MIC strictly less than 8 µg/mL no (0)

Answer whether the compound Clc1ccc(C(Cn2cnnn2)[Se][Se]C(Cn2cnnn2)c2ccc(Cl)cc2)cc1 (centres undefined) has MIC strictly less than 8 µg/mL no (0)

Answer whether the compound Fc1ccc(C(Cn2cnnn2)[Se]C(Cn2cnnn2)c2ccc(F)cc2)cc1 (centres undefined) has MIC strictly less than 8 µg/mL no (0)

Answer whether the compound CCC(C)n1ncn(-c2ccc(N3CCN(c4ccc(OCC5COC(Cn6cncn6)(c6ccc(Cl)cc6Cl)O5)cc4)CC3)cc2)c1=O (centres undefined) has MIC strictly less than 8 µg/mL no (0)

Answer whether the compound Fc1ccc(C(Cn2ccnn2)[Se]C(Cn2ccnn2)c2ccc(F)cc2F)c(F)c1 (centres undefined) has MIC strictly less than 8 µg/mL yes (1)

Answer whether the compound c1ccc(C(Cn2ccnc2)[Se][Se]C(Cn2ccnc2)c2ccccc2)cc1 (centres undefined) has MIC strictly less than 8 µg/mL no (0)

Answer whether the compound Clc1ccc(C(Cn2ccnn2)[Se]C(Cn2ccnn2)c2ccc(Cl)cc2Cl)c(Cl)c1 (centres undefined) has MIC strictly less than 8 µg/mL yes (1)

Answer whether the compound Cc1ccc(C(Cn2ccnc2)[Se]C(Cn2ccnc2)c2ccc(C)cc2)cc1 (centres undefined) has MIC strictly less than 8 µg/mL yes (1)

Others:
Answer whether the compound Clc1ccc(C(Cn2cncn2)[Se][Se]C(Cn2cncn2)c2ccc(Cl)cc2Cl)c(Cl)c1 (centres undefined) has MIC strictly less than 8 µg/mL no (0)

Answer whether the compound Clc1ccc(C(Cn2cnnn2)[Se][Se]C(Cn2cnnn2)c2ccc(Cl)cc2Cl)c(Cl)c1 (centres undefined) has MIC strictly less than 8 µg/mL no (0)

Answer whether the compound Clc1ccc(C(Cn2ccnn2)[Se][Se]C(Cn2ccnn2)c2ccc(Cl)cc2Cl)c(Cl)c1 (centres undefined) has MIC strictly less than 8 µg/mL no (0)

Answer whether the compound Clc1ccc(C(Cn2ccnc2)[Se]C(Cn2ccnc2)c2ccc(Cl)cc2)cc1 (centres undefined) has MIC strictly less than 8 µg/mL yes (1)

* * *

System: Candida albicans
Test: Antifungal activity against FCZ-resistant Candida albicans 17# by CLSI based broth microdilution method
Assay type: functional
quantity-name: MIC (µg/mL)
Report the figure in µg/mL without appending any unit label.

Reported MIC, compound Clc1ccc(C(Cn2cncn2)[Se]C(Cn2cncn2)c2ccc(Cl)cc2)cc1 (stereo not given) : ____ 8

Reported MIC, compound Fc1ccc(C(Cn2cncn2)[Se][Se]C(Cn2cncn2)c2ccc(F)cc2F)c(F)c1 (stereo not given) : ____ 8

Reported MIC, compound Clc1ccc(C(Cn2ccnc2)[Se][Se]C(Cn2ccnc2)c2ccc(Cl)cc2)cc1 (stereo not given) : ____ 8

Reported MIC, compound Clc1ccc(C(Cn2cncn2)[Se]C(Cn2cncn2)c2ccc(Cl)cc2Cl)c(Cl)c1 (stereo not given) : ____ 8

Others:
Reported MIC, compound Fc1ccc(C(Cn2cnnn2)[Se][Se]C(Cn2cnnn2)c2ccc(F)cc2)cc1 (stereo not given) : ____ 32

Reported MIC, compound Cc1ccc(C(Cn2ccnc2)[Se][Se]C(Cn2ccnc2)c2ccc(C)cc2)cc1 (stereo not given) : ____ 32

* * *

Test system: Candida albicans
Assay: Antifungal activity against FCZ-resistant Candida albicans 17# by CLSI based broth microdilution method
Type: functional
Recorded measurements of MIC, one per entry

// known answers, use as guide
Reported MIC, compound OC(Cn1cncn1)(Cn1cncn1)c1ccc(F)cc1F : ____ > 64 µg/mL

Reported MIC, compound Fc1ccc(C(Cn2ccnn2)[Se][Se]C(Cn2ccnn2)c2ccc(F)cc2F)c(F)c1 (centres undefined) : ____ 16 µg/mL

Others:
Reported MIC, compound Fc1ccc(C(Cn2cncn2)[Se]C(Cn2cncn2)c2ccc(F)cc2)cc1 (centres undefined) : ____ 8 µg/mL

Reported MIC, compound Clc1ccc(C(Cn2cncn2)[Se][Se]C(Cn2cncn2)c2ccc(Cl)cc2)cc1 (centres undefined) : ____ 64 µg/mL

Cited source: ChEMBL document CHEMBL5352410
